Molecular target: T1, human CD98, endogenously expressed on Molt-4 human acute lymphoblastic leukemia cells (human)
T1 chain: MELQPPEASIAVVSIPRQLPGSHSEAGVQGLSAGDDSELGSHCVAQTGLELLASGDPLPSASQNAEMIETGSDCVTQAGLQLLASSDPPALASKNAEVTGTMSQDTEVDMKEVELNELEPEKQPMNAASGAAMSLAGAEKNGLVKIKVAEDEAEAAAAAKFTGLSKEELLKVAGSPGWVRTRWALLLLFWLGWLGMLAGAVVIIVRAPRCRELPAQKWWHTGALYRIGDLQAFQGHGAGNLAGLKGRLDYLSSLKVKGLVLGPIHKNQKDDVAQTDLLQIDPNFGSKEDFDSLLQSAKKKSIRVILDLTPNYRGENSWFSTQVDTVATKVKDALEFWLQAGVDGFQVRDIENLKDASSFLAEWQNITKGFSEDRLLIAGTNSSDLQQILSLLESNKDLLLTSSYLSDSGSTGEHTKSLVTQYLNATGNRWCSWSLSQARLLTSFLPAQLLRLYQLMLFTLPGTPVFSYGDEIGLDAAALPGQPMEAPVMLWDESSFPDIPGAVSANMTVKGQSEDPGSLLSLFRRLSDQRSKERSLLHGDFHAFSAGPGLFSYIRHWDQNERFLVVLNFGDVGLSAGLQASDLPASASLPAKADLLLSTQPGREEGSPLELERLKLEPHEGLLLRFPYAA
Test: cell-based or functional assay
Reported Endpoint: % Cell Viability at 50 nM (%)
Note: unit % is implicit; provide only the numeric part.

| Binder | % Cell Viability at 50 nM [%] |
| --- | --- |
| CD98 (CL-huAb102)-ZT (antibody, human IgG1, kappa, L234A L235A, V domains shown, synthon ZT on reduced interchain cysteines (sites not given)) VH: EVQLVESGGGLVQPGGSLRLSCATSGFTFIDYYMSWVRQAPGKGLEWLGFIRNKANRYTTEYSASVKGRFTISRDNSKSILYLQMNSLKTEDTAVYYCTRDRPAWFVYWGQGTLVTVSS VL: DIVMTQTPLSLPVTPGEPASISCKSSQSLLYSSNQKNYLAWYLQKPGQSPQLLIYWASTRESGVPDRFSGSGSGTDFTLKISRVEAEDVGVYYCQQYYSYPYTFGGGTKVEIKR | 3.4 |
| CD98 (CL-huAb108-ZZ (antibody, human IgG1, kappa, L234A L235A, V domains shown, synthon ZZ on reduced interchain cysteines (sites not given)) VH: EVQLVQSGAEVKKPGASVKVSCKASGFTFSDYTMAWVRQAPGQGLEWVATIIYSGRGTYYRDAVKGRFTITRDNSTSTLYLELSSLRSEDTAVYYCARQSDDTYYYWGYFDYWGQGTMVTVSS VL: DIVMTQTPLSLPVTPGEPASINCKSSQSLLFSGNQKNYLAWYLQKPGQSPQLLIYWASTRQSGVPDRFSGSGSGTDFTLKISRVEAEDVGIYYCQQYYDVPYTFGQGTKLEIKR | 5.8 |
| CD98 (CL-huAb102)-LB (antibody, human IgG1, kappa, L234A L235A, V domains shown, synthon LB on reduced interchain cysteines (sites not given)) VH: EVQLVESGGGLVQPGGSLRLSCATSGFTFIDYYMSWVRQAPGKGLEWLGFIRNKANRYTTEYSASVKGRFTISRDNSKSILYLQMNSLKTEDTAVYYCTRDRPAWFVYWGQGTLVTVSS VL: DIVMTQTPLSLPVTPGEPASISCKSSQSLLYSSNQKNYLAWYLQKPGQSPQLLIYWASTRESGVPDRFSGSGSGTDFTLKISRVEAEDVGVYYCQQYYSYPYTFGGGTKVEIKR | 14.8 |
| CD98 (CL-huAb102)-TX (antibody, human IgG1, kappa, L234A L235A, V domains shown, synthon TX on reduced interchain cysteines (sites not given)) VH: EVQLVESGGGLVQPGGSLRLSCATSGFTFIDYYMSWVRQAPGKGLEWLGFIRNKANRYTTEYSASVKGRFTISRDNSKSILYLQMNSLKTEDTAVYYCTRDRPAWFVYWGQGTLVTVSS VL: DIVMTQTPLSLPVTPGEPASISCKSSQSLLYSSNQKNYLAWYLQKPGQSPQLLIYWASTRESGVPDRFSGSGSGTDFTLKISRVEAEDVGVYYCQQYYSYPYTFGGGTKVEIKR | 2.8 |

Please report the measured % Cell Viability at 50 nM for CD98 (CL-huAb104)-TX (antibody, human IgG1, kappa, L234A L235A, V domains shown, synthon TX on reduced interchain cysteines (sites not given)) VH: EVQLVESGGGLVQPGGSLRLSCATSGFTFIDYYMSWVRQAPGKGLEWLGFIRNKAYGYTTEYSASVKGRFTISRDNSKSILYLQMNSLKTEDTAVYYCTRDRPAWFVYWGQGTLVTVSS VL: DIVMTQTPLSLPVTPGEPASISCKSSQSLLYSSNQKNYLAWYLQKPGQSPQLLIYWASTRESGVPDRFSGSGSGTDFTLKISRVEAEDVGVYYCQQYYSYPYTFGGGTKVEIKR 4.3
